Hi there, I'd appreciate the recorded growth for every entry that follows.
Tested on: HCT-116 colon
Assay: NCI-60 one-dose screen, 48 h (100 = growth as untreated, 0 = no growth, -100 = all killed)
Settings: 10 µM unless noted
Description: Growth inhibition of the HCT-116 human tumor cell line is measured as a screen for anti-cancer activity. Cells are grown in 96 well plates and exposed to the test compound for 48 hours. Compounds are tested at a single concentration, which is 10^-5 M for most compounds. The reported endpoint is percent growth (GI% or GIPRCNT), where numbers from 0 - 100% represent growth inhibition, and numbers from -100% - 0 represent cell death. For example, a value of 40 represents 60% growth inhibition. […]
About 83,000 compounds went through this panel and 20% of them were active in at least one assay; those are over-represented in the sample as a whole.
Numeric only. Scale: %

Please fill in: growth reported for COc1ccc(/C=C/C(=O)c2cc(S(N)(=O)=O)c(OC)cc2OC)cc1 = 65.1

Please fill in: growth reported for O=C(Cn1cc(-c2ccccc2)nn1)Nc1nc(-c2ccc(Cl)cc2)cs1 = 108

Please fill in: growth reported for COc1ccc2c(c1)c(CC(=O)[Se]CC(=O)O)c(C)n2C(=O)c1ccc(Cl)cc1 = 98.1

Please fill in: growth reported for O=C(c1ccc(O)cc1)[C@@H]1CN[C@@]2(C(=O)Nc3ccccc32)[C@H]1c1ccc(F)cc1 = 104

Please fill in: growth reported for COc1ccc(C2CC(c3ccc(Nc4nc(NCCO)nc(N5CCOCC5)n4)cc3)=Nc3c(N)nc(N)nc3N2)cc1 (centres undefined) = 100

Please fill in: growth reported for CC(=O)O[C@@H]1C(=O)N(c2cnccn2)[C@H]1c1ccccc1[N+](=O)[O-] = -14.2

Please fill in: growth reported for O=C(CCn1c[n+](CC(=O)c2ccc(-c3ccccc3)cc2)c2ccccc21)Nc1cccc2cccnc12 = 56

Please fill in: growth reported for N/C(=N\C(N)=N\c1nc2ccccc2s1)c1ccc2ccccc2c1 = 63.5

Please fill in: growth reported for CN1CCN(c2ccc(/C=N/Nc3nc4ccccc4c(=O)n3-c3ccccc3)cc2)CC1 = 99
